Taken from ChEMBL document CHEMBL1144871.

Biological target: DNA polymerase III PolC-type (Bacillus subtilis (strain 168), UniProt P13267)
Sequence (P13267 whole entry): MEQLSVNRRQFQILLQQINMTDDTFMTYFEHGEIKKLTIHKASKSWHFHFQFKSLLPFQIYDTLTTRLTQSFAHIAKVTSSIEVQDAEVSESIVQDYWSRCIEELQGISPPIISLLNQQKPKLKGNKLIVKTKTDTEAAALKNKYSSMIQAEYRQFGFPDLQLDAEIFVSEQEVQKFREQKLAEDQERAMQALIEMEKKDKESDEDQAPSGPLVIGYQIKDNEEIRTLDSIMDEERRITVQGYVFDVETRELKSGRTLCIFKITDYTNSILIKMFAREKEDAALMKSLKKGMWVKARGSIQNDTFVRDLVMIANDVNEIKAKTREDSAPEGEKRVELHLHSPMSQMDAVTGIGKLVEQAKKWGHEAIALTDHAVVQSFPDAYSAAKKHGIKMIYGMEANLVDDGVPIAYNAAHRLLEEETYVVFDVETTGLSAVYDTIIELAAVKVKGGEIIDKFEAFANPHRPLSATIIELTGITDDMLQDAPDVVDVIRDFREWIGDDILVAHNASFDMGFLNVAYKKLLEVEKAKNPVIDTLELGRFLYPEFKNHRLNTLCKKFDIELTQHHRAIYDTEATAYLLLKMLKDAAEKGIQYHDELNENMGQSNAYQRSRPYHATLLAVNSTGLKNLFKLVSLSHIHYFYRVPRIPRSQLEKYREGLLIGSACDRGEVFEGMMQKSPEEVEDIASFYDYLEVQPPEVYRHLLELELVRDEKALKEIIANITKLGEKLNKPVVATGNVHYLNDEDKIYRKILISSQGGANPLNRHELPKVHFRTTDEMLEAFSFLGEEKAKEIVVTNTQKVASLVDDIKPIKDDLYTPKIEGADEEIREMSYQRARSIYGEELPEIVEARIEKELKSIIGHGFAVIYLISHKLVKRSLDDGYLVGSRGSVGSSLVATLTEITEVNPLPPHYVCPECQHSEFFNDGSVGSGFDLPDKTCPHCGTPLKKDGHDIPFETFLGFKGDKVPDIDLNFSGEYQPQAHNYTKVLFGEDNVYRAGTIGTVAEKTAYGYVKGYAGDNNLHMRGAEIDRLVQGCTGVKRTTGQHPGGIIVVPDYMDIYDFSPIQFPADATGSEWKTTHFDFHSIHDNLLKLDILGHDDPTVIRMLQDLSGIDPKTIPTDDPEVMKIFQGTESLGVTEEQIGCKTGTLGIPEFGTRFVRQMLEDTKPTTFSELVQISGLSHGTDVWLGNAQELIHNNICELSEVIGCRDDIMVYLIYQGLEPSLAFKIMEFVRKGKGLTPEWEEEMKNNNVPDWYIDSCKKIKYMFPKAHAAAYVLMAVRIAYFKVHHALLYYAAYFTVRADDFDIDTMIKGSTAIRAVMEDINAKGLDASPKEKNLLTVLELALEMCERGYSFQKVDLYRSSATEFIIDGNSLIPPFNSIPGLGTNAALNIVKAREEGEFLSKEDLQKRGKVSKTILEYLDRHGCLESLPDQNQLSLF
Assay: Inhibitory activity against DNA polymerase IIIC from Bacillus subtilis was determined
pKi: −log10 of the molar value.
Where pKi equals or exceeds 7, the correct label is criterion met; where it does not, the label is criterion not met.

Item "COCCCCn1c(=O)cc(Nc2ccc(C)c(CSC#N)c2)[nH]c1=O" with pKi of 7 or above?
criterion met

Is pKi for "CCc1cc(Nc2cc(=O)n(CCCCN3CCCCC3)c(=O)[nH]2)ccc1C" at or above 7?
criterion met

Dear colleague, could you confirm whether "CCc1cc(Nc2cc(=O)n(CCCCN3CCN(Cc4ccccc4)CC3)c(=O)[nH]2)ccc1C" has pKi at or above 7?
criterion met

Check if pKi >= 7 (inclusive). Item: COCCCCn1c(=O)cc(Nc2ccc(C)c(C(C)O)c2)[nH]c1=O (stereo not given)
criterion not met

Does pKi meet or surpass 7 for "C=C(C)c1cc(Nc2cc(=O)n(CCCCOC)c(=O)[nH]2)ccc1C" ?
criterion not met

For this molecule, is measured pKi 7 or higher? COCCCCn1c(=O)cc(Nc2ccc(C)c(C(C)Cl)c2)[nH]c1=O (stereo not given)
criterion not met

Hi team, for "COCCCCn1c(=O)cc(Nc2ccc(C)c(I)c2)[nH]c1=O" , is the recorded pKi at or above 7?
criterion not met

# check: pKi of CCOC1CN(CCCCn2c(=O)cc(Nc3ccc(C)c(CC)c3)[nH]c2=O)CCO1 (stereo not given) is greater than or equal to 7
criterion met

----------
Assign Ki to each entry below.
Target: DNA polymerase III PolC-type (Bacillus subtilis (strain 168))
Assay: Inhibitory activity against DNA polymerase IIIC from Bacillus subtilis was determined
Numbers only, in nM.

Reference set, count: 6
Return reported Ki; argument: "CCc1cc(Nc2cc(=O)n(CCCCN=[N+]=[N-])c(=O)[nH]2)ccc1C"
120

Which Ki value is on record for "COCCCCn1c(=O)cc(Nc2ccc(C)c(CO)c2)[nH]c1=O" ?
20000

Give the measured Ki of "C=Cc1cc(Nc2cc(=O)n(CCCCOC)c(=O)[nH]2)ccc1C" .
560

Bench note: what Ki did "COCCCCn1c(=O)cc(Nc2ccc(C)c(Cl)c2)[nH]c1=O" show?
42

# lookup: Ki of "COCCCCn1c(=O)cc(Nc2ccc(C)c(C)c2)[nH]c1=O"
550

Given the entry "CCc1cc(Nc2cc(=O)n(CCCCO)c(=O)[nH]2)ccc1C" , report its measured Ki.
63

For each listed entry, give its Ki.
1. CCc1cc(Nc2cc(=O)n(CCCCI)c(=O)[nH]2)ccc1C
2. CCOC(=O)CC1CN(CCCCn2c(=O)cc(Nc3ccc(C)c(CC)c3)[nH]c2=O)CCO1 (configuration not stated)
3. COCCCCn1c(=O)cc(NCc2ccc(Cl)c(Cl)c2)[nH]c1=O
4. CCc1cc(Nc2cc(=O)n(CCCCN3CCC(O)(c4ccccc4)CC3)c(=O)[nH]2)ccc1C

140
26
80
67

----------
Target: DNA polymerase III PolC-type (Bacillus subtilis (strain 168), UniProt P13267)
Experiment: Inhibitory activity against DNA polymerase IIIC from Bacillus subtilis was determined
Give measured Ki for each item. Keep answers brief.
Answers are plain numbers, in nM.

Hi, could you look up Ki for each item in my list?
1. COCCCCn1c(=O)cc(Nc2ccc(C)c(CCl)c2)[nH]c1=O
2. CCc1cc(Nc2cc(=O)n(CCCCN3CCNCC3)c(=O)[nH]2)ccc1C.Cl.Cl
3. COCCCCn1c(=O)cc(Nc2ccc(C)c(CS)c2)[nH]c1=O
4. COCCCCn1c(=O)cc(Nc2ccc(C)c(CC#N)c2)[nH]c1=O

[40, 30, 180, 1020]

Would you mind giving Ki for every compound in the list below?
1. COCCCCn1c(=O)cc(Nc2ccc(C)c(Br)c2)[nH]c1=O
2. CCc1cc(Nc2cc(=O)n(CCCCN)c(=O)[nH]2)ccc1C.Cl
3. COCCCCn1c(=O)cc(Nc2ccc(C)c(C(C)=O)c2)[nH]c1=O

1: 129; 2: 62; 3: 3260
